# Test system: Plasmodium berghei
# runDescription: Luciferase/luciferin-expressing antifolate-resistant parasites were used to infect a culture of HepG2 cells that were pre-incubated with compounds. Infected hepatocytes emit light due to the luciferase reaction. Assay results are presented as the percent inhibition of light emission compared to control. […]
# Assay type: functional
# conditionContext: sporozoite, HEPG2TOX_HILL_SLOPE 3.45, HEPG2TOX_R_SQUARED 0.508, PBLUC_HILL_SLOPE 8.67, PBLUC_R_SQUARED 0.634, read-out: LUCIFERASE INFECTION ASSAY - IC50
readoutType: IC50 (µM)
Write it as a number; the unit µM goes unstated.

Prompt line: What IC50 value was documented for this compound, CS(=O)(=O)c1ncc(Cl)c(C(=O)C(C#N)c2ccc3ccccc3n2)n1 (stereo unspecified) ?
Response line: 3.78

Where these numbers come from: ChEMBL document CHEMBL4483862
